test protocol: inhibitors of hydroxyurea-induced Chk1 phosphorylation, primary screen, imaging, HeLa, phospho-Chk1 nuclear intensity (AID 1187); also: test concentration not given here
measurement parameters: hydroxyurea-induced phospho-Chk1 immunofluorescence imaging, higher = more signal
property: z-score
Returns: the value as a bare number; no unit string appended.

Some solved cases for reference:
molecule | z-score
O=C1C2C=CC(C(O)c3ccc(I)cc3)N(Nc3ccccc3)C2C(=O)N1c1ccccc1 (stereo unspecified) | -1.05
COCCOC(=O)N1C(=O)[C@@]2(c3cc(C#CC4(O)CCCCCC4)ccc31)[C@H](c1ccc(OCCO)cc1)N1[C@H](c3ccccc3)[C@H](c3ccccc3)OC(=O)[C@H]1[C@@H]2C(=O)Nc1nc2ccccc2s1 | 0.561

Return value of z-score for input C=CCC(OC(C)=O)[C@@H]1[C@@H](N(Cc2ccc(-c3cccc(C(F)(F)F)c3)o2)C(=O)c2ccc(C)cc2)c2cc(OCCCO)ccc2N1C(=O)Cc1ccc(OC)cc1 (stereo partly specified) , no commentary. 0.0947

Return value of z-score for input "COc1ccc(C#Cc2ccc3c(c2)[C@]2(C(=O)N3)[C@H](c3ccc(OCCO)cc3)N3[C@H](c4ccccc4)[C@H](c4ccccc4)OC(=O)[C@H]3[C@@H]2C(=O)N2CCc3cc(OC)c(OC)cc3C2)cc1" , no commentary. 0.0006

Return value of z-score for input CC(C)N1CC=CC23O[C@@H]4/C=C\CCCOC(=O)C4[C@H]2C(=O)N(CCCCCCO)[C@@H]3C1=O (stereo partly specified) , no commentary. -0.0806

Return value of z-score for input "COC(=O)C(CC#Cc1ccc2c(c1)[C@]1(C(=O)N2)[C@H](C(=O)Nc2nc3ccccc3s2)[C@H]2C(=O)O[C@H](c3ccccc3)[C@H](c3ccccc3)N2[C@@H]1c1ccc(OCCO)cc1)C(=O)OC" , no commentary. 0.531

Return value of z-score for input "CCCCNC(=O)c1ccc(C#C[Si](C(C)C)(C(C)C)C(C)C)c(OC(C)=O)c1" , no commentary. 0.331

Return value of z-score for input CC1CC/C=C\[C@H]2OC34C=CCN(C(C)(C)C)C(=O)[C@H]3N(C(CO)C(C)C)C(=O)[C@@H]4C2C(=O)O1 (stereo partly specified) , no commentary. 0.277

----------
test protocol: basal S. cerevisiae growth modulation, no modifier, primary screen, OD600, strain BY4716, 24 h, basal condition (AID 1173)
measurement parameters: OD600, 24 h, higher = more signal, called active from +8 up or from −8 down
property: z-score
Returns: the value as a bare number; no unit string appended.

Some solved cases for reference:
compound | z-score
COc1ccc(C#Cc2ccc3c(c2)[C@]2(C(=O)N3)[C@H](C(=O)N3CCCCCCC3)[C@H]3C(=O)O[C@H](c4ccccc4)[C@H](c4ccccc4)N3[C@@H]2c2ccc(O)cc2)cc1 | 0.299
COC(=O)[C@@]1(Cc2ccc(F)cc2)[C@H]2c3cc(C(=O)N(C)C)n(Cc4ccc(O)c(OC)c4)c3C[C@H]2CN1C(=O)c1ccccc1 | 1.15
C=C(COC)C(=O)CC[C@H](OC(=O)c1cccnc1)c1ccc(CO)o1 | -1.29

Return value of z-score for input "C=C(COC)C(=O)CC[C@H](OC(C)=O)c1ccc(OCCO)cc1" , no commentary. -0.408

Return value of z-score for input CCCCCN1CC=CC23O[C@@H]4/C=C\CCC(C)OC(=O)C4[C@H]2C(=O)N(CCCCCCO)[C@@H]3C1=O (stereo partly drawn) , no commentary. -0.262

Return value of z-score for input "Cc1ccc(S[C@]2(C(=O)NC(C)C)CC(=O)N(Cc3ccccc3Cl)[C@@H]2c2ccc(CO)cc2)cc1" , no commentary. -0.624

Return value of z-score for input Cc1ccccc1C(O)C1C=CC2C(=O)N(c3ccccc3)C(=O)C2N1Nc1ccc([N+](=O)[O-])cc1 (stereo not drawn) , no commentary. -0.14

Return value of z-score for input "COCC(=C=CC[C@H](O)c1cccc(OCCO)c1)C[C@H](O)COCc1ccccc1" , no commentary. -1.76

Return value of z-score for input "[N-]=[N+]=Nc1ccccc1[C@@H]1OC(c2ccc(OCCCO)cc2)=N[C@]1(Cc1ccccc1)C(=O)NCc1ccccc1" , no commentary. 0.152

Return value of z-score for input CN1C(=O)C2C=CC(C(O)c3cc(C(F)(F)F)cc(C(F)(F)F)c3)N(Nc3ccccc3)C2C1=O (stereo not drawn) , no commentary. -2.64

Return value of z-score for input CC(=O)n1cc(C(O)C2C=CC3C(=O)N(c4ccccc4)C(=O)C3N2Nc2ccc(C(C)C)cc2)c2ccccc21 (stereo not drawn) , no commentary. -2.33

Return value of z-score for input "COC(=O)C(CC#Cc1ccc2c(c1)[C@]1(C(=O)N2)[C@H](c2ccc(OCCO)cc2)N2[C@H](c3ccccc3)[C@H](c3ccccc3)OC(=O)[C@H]2[C@@H]1C(=O)N1CCN(c2ncccn2)CC1)C(=O)OC" , no commentary. 1.96

Return value of z-score for input "COCCCNC(=O)[C@@]1(c2ccc([N+](=O)[O-])cc2)CC(=O)N(C(C)C)[C@@H]1c1ccc(CO)cc1" , no commentary. -0.569
